The measured values listed here are drawn from paper PMC6968383.

target: AChE (EC 3.1.1.7) from electric eel (Electrophorus electricus, UniProt O42275); construct: purchased Sigma-Aldrich; assay: biochemical; assay type: biochemical; settings: eeAChE; mean ± SEM of triplicate independent experiments; read-out: AChE IC50
Sequence (O42275 24-633): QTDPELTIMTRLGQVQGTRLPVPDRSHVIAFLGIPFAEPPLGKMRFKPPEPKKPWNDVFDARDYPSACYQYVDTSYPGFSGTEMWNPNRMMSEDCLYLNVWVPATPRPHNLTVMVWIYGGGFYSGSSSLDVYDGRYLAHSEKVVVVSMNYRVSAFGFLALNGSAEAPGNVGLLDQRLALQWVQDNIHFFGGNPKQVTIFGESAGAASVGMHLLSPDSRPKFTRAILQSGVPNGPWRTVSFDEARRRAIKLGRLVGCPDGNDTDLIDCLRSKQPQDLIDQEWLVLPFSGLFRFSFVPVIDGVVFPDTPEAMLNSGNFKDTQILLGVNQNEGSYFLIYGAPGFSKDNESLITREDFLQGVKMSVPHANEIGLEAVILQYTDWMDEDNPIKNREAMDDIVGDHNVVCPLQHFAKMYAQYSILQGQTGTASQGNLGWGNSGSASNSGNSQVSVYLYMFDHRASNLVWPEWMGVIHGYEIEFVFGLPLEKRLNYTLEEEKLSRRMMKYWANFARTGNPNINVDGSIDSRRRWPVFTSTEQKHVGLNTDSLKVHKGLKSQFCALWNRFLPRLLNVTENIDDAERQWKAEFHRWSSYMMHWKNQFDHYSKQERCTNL
PROPERTY: IC50 (µM)
Give just the number in µM; leave the unit off.

>>> value_measured("Cn1c(=O)n(C)c2cc(S(=O)(=O)NCC3CCN(Cc4ccc(Cl)cc4)CC3)ccc21 [Compound 15h]")
1.95
>>> value_measured("Cn1c(=O)n(C)c2cc(C(=O)NCC3CCN(Cc4cccc(F)c4)CC3)ccc21")
2.93
>>> value_measured("Cn1c(=O)n(C)c2cc(C(=O)NCC3CCN(Cc4ccc(Br)cc4)CC3)ccc21")
11.1
>>> value_measured("Cn1c(=O)n(C)c2cc(C(=O)NCC3CCN(Cc4ccc(Cl)cc4)CC3)ccc21")
0.21
>>> value_measured("Cc1ccc(CN2CCC(CNS(=O)(=O)c3ccc4c(c3)n(C)c(=O)n4C)CC2)cc1 [Compound 15d]")
24.8
>>> value_measured("Cn1c(=O)n(C)c2cc(C(=O)NCC3CCN(Cc4ccccc4Br)CC3)ccc21")
8.87
>>> value_measured("Cc1ccc(CN2CCC(CNC(=O)c3ccc4c(c3)n(C)c(=O)n4C)CC2)cc1C")
9.97

Okay, now this compound:
Sure, the documented IC50 for Cc1ccccc1CN1CCC(CNC(=O)c2ccc3c(c2)n(C)c(=O)n3C)CC1 is 8.08
